# Test system: SEM cells
# assay.summary: cell viability relative to DMSO control; higher = less cytotoxic
# settings: RPMI 5 mM glucose + 10% FBS; 48 h; 0.0211 µM
Listed compounds paired with reported cell viability
# unit: % | format: bare number

Summary for this compound, CC(C)(C)Cn1c(N)nc2ccc(-c3[nH]c(C(C)(C)C)nc3-c3ccc(F)cc3)nc21 : cell viability is 157

* * *

# Test system: P12-Ichikawa
# assay.summary: cell viability relative to DMSO control; higher = less cytotoxic
# settings: RPMI 5 mM glucose + 10% FBS; 48 h; 0.0211 µM
Listed molecules paired with reported cell viability
# unit: % | format: bare number

These recorded examples may help you get a feel for the data.
COCCCOc1ccnc(C[S+]([O-])c2nc3ccccc3[nH]2)c1C (centres undefined) = 106
Cn1cnc(-c2cc3nccc(Oc4ccc(NC(=S)NC(=O)Cc5ccccc5)cc4F)c3s2)c1 = 87.1
CCc1cccc2c3c([nH]c12)C(CC)(CC(=O)O)OCC3 (centres undefined) = 103
COc1cccc2c(NCc3ccccc3)nc(-n3c(N)nc4ccccc43)nc12 = 115
CCc1ccc(C(=O)Nc2cc(CN3CCN(C)CC3)cc(C(F)(F)F)c2)cc1C#Cc1cnc2ccnn2c1 = 113
Cc1ccc(NC(=O)c2cccc(N(C)C)c2)cc1NC(=O)c1ccc(O)cc1 = 127

Form: item COc1ccc2c(OCc3nnc4ccc(-c5ccccc5)nn34)ccnc2c1 ; test system P12-Ichikawa; cell viability: 122

Form: item O=P1(N(CCCl)CCCl)NCCCO1 (centres undefined) ; test system P12-Ichikawa; cell viability: 113

Form: item O=[S+]([O-])(CCSSCC[S+](=O)([O-])[O][Na])[O][Na] ; test system P12-Ichikawa; cell viability: 111

* * *

# System: P12-Ichikawa
# assay.summary: cell viability relative to DMSO control; higher = less cytotoxic
# settings: HPLM + 10% dialyzed FBS; 48 h; 0.00702 µM
measured.attribute: cell viability (%)
# unit: % | format: bare number

Form: item CCCCCCCCOc1ccccc1C(=O)Nc1ccc(C(=O)OCC[N+](C)(CC)CC)cc1 ; test system P12-Ichikawa; cell viability: 98.2

Form: item NCCCCCC(=O)O ; test system P12-Ichikawa; cell viability: 106

Form: item CCOc1cc(/C=C2/C(=O)N(c3ccccc3)N=C2C)cc(Cl)c1OCC(=O)OC ; test system P12-Ichikawa; cell viability: 87.7

Form: item NC1CCC(Nc2nc(Nc3ccc(C(=O)N4CCCCC4)cc3)c3ncn(-c4cccc(F)c4)c3n2)CC1 (stereo not given) ; test system P12-Ichikawa; cell viability: 115

Form: item Cc1cc(-c2nnc3n2CCCCC3)c(C)n1-c1ccccc1 ; test system P12-Ichikawa; cell viability: 122

* * *

# Tested on: NOMO1
# assay.summary: cell viability relative to DMSO control; higher = less cytotoxic
# settings: RPMI 5 mM glucose + 10% FBS; 48 h; 15.4 µM
Kindly apply the following: 1 (yes) if cell viability is less than 80%, 0 (no) in every other case.

Use the examples below as a reference point.
C[N]1N=CC2=C1C=C(C(=C2)OC3=CC=C(NC(=O)\C4=C\C=C(\C)N(C4=O)C5=CC=C(F)C=C5)C=C3F)C6=C[NH]N=C6 = 1 (yes)
O=[N+]([O-])c1ccc(Nc2ccccc2-c2ccccc2)c2nonc12 = 0 (no)
CCC[C@@H](C=O)NC(=O)[C@H](CC(C)C)NC(=O)[C@H](CC(C)C)NC(=O)OCc1ccccc1 = 1 (yes)
C/C(=C\c1csc(C)n1)[C@@H]1C[C@@H]2O[C@@H]2CCC[C@H](C)[C@H](O)[C@@H](C)C(=O)C(C)(C)[C@@H](O)CC(=O)O1 = 1 (yes)
COc1ccc(CC2c3cc(OC)c(OC)cc3CC[N+]2(C)CCC(=O)OCCCCCOC(=O)CC[N+]2(C)CCc3cc(OC)c(OC)cc3C2Cc2ccc(OC)c(OC)c2)cc1OC (configuration not stated) = 1 (yes)

Is the reported cell viability for NC(=O)c1ccc(-c2nc(-c3ccc4c(c3)OCO4)c(-c3ccccn3)[nH]2)cc1 strictly below 80%?
0 (no)

Is the reported cell viability for C=C[C@H]1CN2CCC1C[C@@H]2[C@@H](O)c1ccnc2ccccc12 (some centres not stated) strictly below 80%?
0 (no)
